Answer each item with its documented growth inhibition.
- experiment summary: NCI Yeast Anticancer Drug Screen. Data for the sgs1 mgt1 strain (AID 161);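 note: 0% = growth of cultures given vehicle only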
- study conditions: S. cerevisiae sgs1 mgt1 strain, at 50.0 µM (retest, dose inferred, filed as 5.0), hits give high values
This is part of a sample that, as a whole, favours compounds with a hit. Of some 79,000 tested, about 15% had one in any assay.
Give bare numbers, in %.

Example compounds with recorded growth inhibition:
compound	growth inhibition (%)
OC1C2CCC1C1C3C=CC(C3)C21 (stereo unspecified)	88
COc1cc(/C=C/c2cc[n+](C)cc2)ccc1O	-17

Okay, here is my list. What is growth inhibition for each of these?
1. Fc1cccc2c1cc1ccc3cccc4ccc2c1c34
2. C/C(=N\NC(N)=S)C(CN1CCCCC1)C(C1=C(O)c2ccccc2OC1)c1ccccc1 (stereo unspecified)
3. O=C1OCCCOC(=O)c2cc(ccc2O)OCC#CC#CCOc2ccc(O)c1c2

1: -14; 2: 67; 3: -3

Okay, here is my list. What is growth inhibition for each of these?
1. CCCCCOC(=O)CSC#N
2. Oc1c(Cl)cc(Cl)c(Cc2c(Cl)cc(Cl)c(O)c2Cl)c1Cl
3. CC1(C)C=CC2=C(O1)C(=O)c1ccccc1C2=O
4. Cc1ccc(C)c([N+](=O)[O-])c1
5. CC(=O)OC1=Cc2ccccc2C(c2ccccc2)c2ccccc21 (stereo unspecified)
6. CCOC(=O)C(=Cc1ccccc1Br)C(=O)OCC

98
99
88
-2
18
-18

Okay, here is my list. What is growth inhibition for each of these?
1. CCCCNC(=O)OCCN=C1c2ccccc2C(Br)C(Br)c2ccccc21 (stereo unspecified)
2. COc1ccc2cc(CNCCCCCCCCNCc3ccc4cc(OC)ccc4c3)ccc2c1
3. CC(/C=C/c1ccc(Cl)c(Cl)c1)=N\NC(N)=S
4. CN1C=Cc2ccccc2C1C(C1c2ccccc2C=CN1C)[N+](=O)[O-] (stereo unspecified)
5. Cc1cc(=O)n(C)c2c(C)cccc12

21
99
76
56
-57

Okay, here is my list. What is growth inhibition for each of these?
1. CNC(=O)OCC1=CC(=O)C(OC)=C(OC)C1=O
2. CCOC(=O)C(=NNc1ccccc1)C(=O)OCC
3. CC(=O)Nc1ccc(NC(=S)Nc2ccc(NC(C)=O)cc2)cc1
4. O=C(CN(Cc1ccccc1)Cc1ccccc1)N1CCc2c([nH]c3ccccc23)C1c1cccnc1 (stereo unspecified)
5. CCOC(=O)C(=C=C=C(c1ccccc1)c1ccccc1)C(=O)OCC
6. O=Cc1ccc(/C=N\Nc2ccccc2)cc1
7. CO[C@H]1C[C@@H]2CC[C@@H](C)[C@@](O)(O2)C(=O)C(=O)N2CCCC[C@H]2C(=O)O[C@H]([C@H](C)C[C@@H]2CC[C@@H](OC(=O)C(C)(CO)CO)[C@H](OC)C2)CC(=O)[C@H](C)/C=C(\C)[C@@H](O)[C@@H](OC)C(=O)[C@H](C)C[C@H](C)/C=C/C=C/C=C/1C
8. CN(C)c1ccc(C(O)(Cc2cccnc2)c2ccc(N(C)C)cc2)cc1

1: -2; 2: 16; 3: 100; 4: 8; 5: 40; 6: -4; 7: 98; 8: 4

Okay, here is my list. What is growth inhibition for each of these?
1. CCCC(C)c1ccc(O)cc1 (stereo unspecified)
2. O=C(c1ccc(Br)cc1)C1N=NCC1c1ccccc1 (stereo unspecified)
3. Cc1ccc(NC(=O)Oc2ccc(C(C)(C)C)cc2Br)cc1NC(=O)Oc1ccc(C(C)(C)C)cc1Br
4. Cc1c(N)nc(C(CC(N)=O)NCC(N)C(N)=O)nc1C(=O)NC(C(=O)NC(C)C(O)C(C)C(=O)NC(C(=O)NCCc1nc(-c2nc(C(=O)NCCCNC(C)c3ccccc3)cs2)cs1)C(C)O)C(OC1OC(CO)C(O)C(O)C1OC1OC(CO)C(O)C(OC(N)=O)C1O)c1cnc[nH]1 (stereo unspecified)
5. Cc1ccc(S(=O)(=O)N/N=C2/CC[C@H](C(C)(C)C)C[C@@H]2C)cc1

1. 16
2. -14
3. 14
4. 98
5. 98

Okay, here is my list. What is growth inhibition for each of these?
1. Oc1ccc[nH]c1=S
2. CCCCCCN(S(=O)(=O)c1ccc([N+](=O)[O-])cc1)S(=O)(=O)c1ccc([N+](=O)[O-])cc1

[-34, 48]
